Entry source: patent US4122034A

- Test system: Candida albicans
- RUN DESCRIPTION: In vitro Anti-Candida activity, dilutions in Sabouraud's Dextrose Agar (Table III)
- Format: cell-based
- TEST SETTINGS: 48 h, strain Newcomb, after 48 hours
Documented MIC across a set of molecules
Output spec: scalar in µg/mL, unitless text.

Here are 4 molecules together with their reported answers.
>>> measurement("NCc1[nH]c2ccc(Cl)cc2c1-c1c(F)cccc1F")
37.5
>>> measurement("NCc1[nH]c2ccc(Cl)cc2c1-c1ccccc1")
37.5
>>> measurement("NCc1[nH]c2ccc(Cl)cc2c1-c1ccc(Cl)cc1Cl")
17.5
>>> measurement("NCc1[nH]c2cc(Br)c(Cl)cc2c1-c1ccccc1")
17.5

Simply: NCc1[nH]c2ccc(Cl)cc2c1-c1ccccc1F , Candida albicans, MIC = 37.5

* * *

Documented MIC across a set of compounds
- Tested on: Peptostreptococcus
- RUN DESCRIPTION: In vitro activity against anaerobes in fluid Thioglycollate medium (Table II)
- Assay type: cell-based
- TEST SETTINGS: 48 hrs
Output spec: scalar in µg/mL, unitless text.

>>> measurement("NCc1[nH]c2cc(Br)c(Cl)cc2c1-c1ccccc1")
0.3
>>> measurement("NCc1[nH]c2ccc(Cl)cc2c1-c1ccc(Cl)cc1Cl")
0.75

Simply: NCc1[nH]c2ccc(Cl)cc2c1-c1ccccc1F , Peptostreptococcus, MIC = 3

Simply: NCc1[nH]c2ccc(Cl)cc2c1-c1ccccc1 , Peptostreptococcus, MIC = 3

Simply: NCc1[nH]c2ccc(Cl)cc2c1-c1c(F)cccc1F , Peptostreptococcus, MIC = 3

* * *

Documented MIC across a set of compounds
- Tested on: Staphylococcus aureus
- RUN DESCRIPTION: In vitro antibacterial activity, dilution in Mueller Hinton Agar (Table I)
- Format: cell-based
- TEST SETTINGS: pH 7.4, strain Zeigler, Mueller Hinton Agar pH 7.4
- Protocol: All the tests were carried out and (when necessary) scored under standard conditions. "MIC" means "minimum inhibitory concentration." In vitro Antibacterial Activity of 2-aminoalkyl-3-phenyl- indoles of the formula I. Dilution in Mueller Hinton Agar pH 7.4
Output spec: scalar in µg/mL, unitless text.

>>> measurement("NCc1[nH]c2ccc(Cl)cc2c1-c1c(F)cccc1F [B]")
7.5
>>> measurement("NCc1[nH]c2ccc(Cl)cc2c1-c1ccccc1F [A]")
3

# MIC of NCc1[nH]c2ccc(Cl)cc2c1-c1ccccc1 [C] = 3

# MIC of NCc1[nH]c2cc(Br)c(Cl)cc2c1-c1ccccc1 [D] = 3

# MIC of NCc1[nH]c2ccc(Cl)cc2c1-c1ccc(Cl)cc1Cl [E] = 0.8

* * *

- System: Staphylococcus aureus
- RUN DESCRIPTION: In vitro antibacterial activity, dilution in Mueller Hinton Agar (Table I)
- Assay type: cell-based
- TEST SETTINGS: 209P, pH 7.4, strain 209P, Mueller Hinton Agar pH 7.4
Documented MIC across a set of compounds

# MIC of NCc1[nH]c2ccc(Cl)cc2c1-c1ccccc1F = 7.5 µg/mL

# MIC of NCc1[nH]c2cc(Br)c(Cl)cc2c1-c1ccccc1 = 3 µg/mL

# MIC of NCc1[nH]c2ccc(Cl)cc2c1-c1ccc(Cl)cc1Cl = 3 µg/mL

# MIC of NCc1[nH]c2ccc(Cl)cc2c1-c1c(F)cccc1F = 7.5 µg/mL

# MIC of NCc1[nH]c2ccc(Cl)cc2c1-c1ccccc1 = 7.5 µg/mL
